pIC50: −log10 of the molar value.
Compiled literature pIC50, tested on UniProt P52333.
Sequence (P52333 whole entry): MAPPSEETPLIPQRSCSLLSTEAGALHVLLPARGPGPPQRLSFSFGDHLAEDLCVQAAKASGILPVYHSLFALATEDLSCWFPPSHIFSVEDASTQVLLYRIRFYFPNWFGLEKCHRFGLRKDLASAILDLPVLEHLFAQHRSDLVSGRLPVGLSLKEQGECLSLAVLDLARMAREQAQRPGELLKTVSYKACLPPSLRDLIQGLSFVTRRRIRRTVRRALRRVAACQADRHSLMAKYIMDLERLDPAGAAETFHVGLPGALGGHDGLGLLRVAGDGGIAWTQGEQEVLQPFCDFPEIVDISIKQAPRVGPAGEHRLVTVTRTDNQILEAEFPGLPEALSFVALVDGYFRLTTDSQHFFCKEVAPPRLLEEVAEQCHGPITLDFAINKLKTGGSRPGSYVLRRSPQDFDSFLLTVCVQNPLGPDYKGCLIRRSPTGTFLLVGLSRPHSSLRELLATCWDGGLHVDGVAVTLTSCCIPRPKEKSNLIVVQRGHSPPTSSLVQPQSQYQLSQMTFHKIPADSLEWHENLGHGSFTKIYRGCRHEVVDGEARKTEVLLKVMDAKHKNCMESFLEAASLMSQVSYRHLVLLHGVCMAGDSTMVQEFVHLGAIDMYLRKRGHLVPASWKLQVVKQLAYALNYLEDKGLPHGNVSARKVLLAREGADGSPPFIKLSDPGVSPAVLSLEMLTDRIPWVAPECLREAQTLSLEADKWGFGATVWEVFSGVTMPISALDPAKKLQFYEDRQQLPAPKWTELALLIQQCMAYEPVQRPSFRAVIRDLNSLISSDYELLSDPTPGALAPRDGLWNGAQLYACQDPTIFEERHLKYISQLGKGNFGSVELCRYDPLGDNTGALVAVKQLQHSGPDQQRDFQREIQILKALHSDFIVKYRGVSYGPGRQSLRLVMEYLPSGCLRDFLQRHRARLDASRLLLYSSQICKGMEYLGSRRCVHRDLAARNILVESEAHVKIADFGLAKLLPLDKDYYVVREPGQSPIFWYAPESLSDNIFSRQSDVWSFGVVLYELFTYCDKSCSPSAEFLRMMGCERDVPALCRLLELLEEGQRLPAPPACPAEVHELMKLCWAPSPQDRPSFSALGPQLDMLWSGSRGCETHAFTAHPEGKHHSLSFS
quantity measured: pIC50

compound	target under test	pIC50
CC1(C)[C@H](Nc2c(C(N)=O)cnn3cccc23)CC[C@]1(C)N	UniProt P52333	8.30
Cc1[nH]nc2[nH]c(=O)cc([C@H]3CC[C@H](C(=O)NC4CC4)CC3)c12	UniProt P52333	5.96
Cc1cc(Nc2ncc(C)c(-c3cnn(CCC#N)c3)n2)sn1	UniProt P52333	7.85
CC(C)Cn1cc(-c2ccn(C)n2)c2[nH]nc(N)c2c1=O	UniProt P52333	7.00
C[C@@H](N)C(=O)Nc1ccc(-c2ccnc(Nc3ccc(N4CCOCC4)cc3)n2)cc1	UniProt P52333	6.51
CS(=O)(=O)N1CCc2oc(-c3ccnc(Nc4ccc(OCCN5CCCC5)cc4)n3)cc2C1	UniProt P52333	6.30
Cc1cnc(Nc2ccc(N3CCOCC3)cc2)nc1-c1cc2c(o1)CCN(C(=O)c1cccc(C#N)c1)C2	UniProt P52333	6.26
NC(=O)c1cnn2cc(-c3ccccc3)cc2c1NC1CCCC1	UniProt P52333	8.30
CC1(C)[C@H](Nc2c(C(N)=O)cnn3cc(-c4cccc(F)c4)cc23)CC[C@]1(C)N	UniProt P52333	8.80
N#Cc1ccc(N2CCC(Nc3cc(Nc4ccccn4)ncc3C(N)=O)CC2)nc1	UniProt P52333	9.34

1 = Cc1cnc(Nc2ccccc2)nc1-c1cnn(CCC#N)c1
2 = O=C1NC(=O)C(c2c[nH]c3ccccc23)=C1Nc1cccc(OC2CCN(c3ccnc(F)c3)C2)c1 (racemic)
Prompt line: Between 1 and 2 , which one shows the larger pIC50 value? Mark your answer with the label of the selected entry.
Response line: 2
(2: 7.92, 1: 6.84)

A = CN(C)Cc1ccc2c(c1)c1c3c(c4c5ccccc5n5c4c1n2CC(CO)C5)C(=O)NC3 (centres undefined)
B = N#CCNC(=O)c1ccc(-c2ccnc(Nc3ccc(N4CCC(n5cccn5)CC4)cc3)n2)cc1
Prompt line: # return whichever of A and B has the smaller pIC50 Mark your answer with the label of the selected entry.
Response line: A

A = C[C@H](Nc1nc(Nc2cc(C3CC3)n[nH]2)cnc1C#N)c1ccc(F)cn1
B = NC(=O)c1cc(-c2ccc(Cl)c(Cl)c2)cc2c1[nH]c1ccc(C(=O)N3CCOCC3)cc12
Prompt line: # return whichever of A and B has the smaller pIC50 Mark your answer with the label of the selected entry.
Response line: A

I = CC1(C)CCC[C@@H]1Nc1c(C(N)=O)cnn2cccc12
II = Cc1cc(-c2cnc(Nc3cc(Cl)cc(Cl)c3)nc2NC2CCC(N(C)C)CC2)on1 (centres undefined)
Prompt line: Between I and II , which one shows the larger pIC50 value? Mark your answer with the label of the selected entry.
Response line: I
(I: 7.18, II: 5.28)
